Test system: primary human mesenchymal stem cells (hMSCs)
Experiment: Induction of chondrogenesis in human mesenchymal stem cells (nodule staining with Rhodamine B / Nile Red)
Assay type: cell-based
Details: TGF-β3 (10 ng/mL) as positive control, read-out: Max. Activity as % TGF-β3 activity
Description: Representative compounds were screened using primary human mesenchymal stem cells (hMSCs) to determine their ability to induce chondrogenesis (process by which cartilage is developed). […] Compound Screening: Each compound was dissolved in DMSO as a 10 mM stock and used to prepare compound source plates. […] The normalized averages (fold change over DMSO) of 2 or 3 replicate wells for each compound concentration were calculated. […]
Can you tell me Emax for the items I'm about to list?
Give bare numbers, in %.

Record excerpt, results attached:
{"ENTRY SMILES": "Cc1ncc(-c2ccc3[nH]nc(-c4nc5c(-c6cccc(F)c6)cccc5[nH]4)c3n2)n1C", "READOUT UNIT": "%", "TEST RESULT": 112}
{"ENTRY SMILES": "CN(C)c1cncc(-c2ccc3[nH]nc(-c4nc5c(-c6cccc(F)c6)cccc5[nH]4)c3n2)c1", "READOUT UNIT": "%", "TEST RESULT": 53}
{"ENTRY SMILES": "Cc1ccc(-c2cccc3[nH]c(-c4n[nH]c5ccc(-c6cncc(N)c6)nc45)nc23)s1", "READOUT UNIT": "%", "TEST RESULT": 88}
{"ENTRY SMILES": "CCC(=O)Nc1cncc(-c2ccc3[nH]nc(-c4nc5c(-c6cccs6)cccc5[nH]4)c3n2)c1", "READOUT UNIT": "%", "TEST RESULT": 57}
{"ENTRY SMILES": "Fc1cccc(-c2cccc3[nH]c(-c4n[nH]c5ccc(-c6ccncc6)nc45)nc23)c1", "READOUT UNIT": "%", "TEST RESULT": 39}

For the 5 compounds below, give their Emax values.
1. CCCCC(=O)Nc1cncc(-c2ccc3[nH]nc(-c4nc5c(-c6cc(F)cc(NCCN(C)C)c6)cccc5[nH]4)c3n2)c1
2. Fc1cccc(-c2cccc3[nH]c(-c4n[nH]c5ccc(C6CCNCC6)nc45)nc23)c1
3. Fc1cccc(-c2cccc3[nH]c(-c4n[nH]c5ccc(-c6cnccn6)nc45)nc23)c1
4. O=C(Cc1ccccc1)Nc1cncc(-c2ccc3[nH]nc(-c4nc5ccccc5[nH]4)c3n2)c1
5. O=C(Cc1ccccc1)Nc1cncc(-c2ccc3[nH]nc(-c4nc5c(-c6ccncc6)cccc5[nH]4)c3n2)c1

A:
1. 36
2. 46
3. 64
4. 37
5. 75

----------
Test system: Wnt activity (Sp5-Luc reporter, Wnt-responsive promoter) in SW480 colon carcinoma cells
Assay: Wnt activity screening assay: Sp5-Luc reporter gene assay in SW480 cells
Assay type: cell-based
Settings: Homo sapiens, overnight incubation, 10-point curve starting from 10 μM
PROPERTY LABEL: EC50 (µM)
Answers are plain numbers, in µM.

Study these solved cases before continuing.
{"COMPOUND": "Nc1cncc(-c2ccc3[nH]nc(-c4nc5c(-c6ccccc6F)cccc5[nH]4)c3n2)c1 [Compound 59]", "EC50 / µM": 1.34}
{"COMPOUND": "NC1CN(c2cncc(-c3ccc4[nH]nc(-c5nc6c(-c7cccc(F)c7)cccc6[nH]5)c4n3)n2)C1 [Compound 510]", "EC50 / µM": 3.23}

Then this compound:
Q: Query EC50 on Wnt activity (Sp5-Luc reporter, Wnt-responsive promoter) in SW480 colon carcinoma cells for c1cc(-c2ccc3c(c2)OCO3)c2nc(-c3n[nH]c4ccc(C5CCNCC5)nc34)[nH]c2c1 [Compound 1108]
A: 3.52
